// provenance: the supplement of paper PMC10724198

# Test system: Saccharomyces cerevisiae;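 also: PSI is a weighted mean of sequencing reads over stability bins, variants kept only with over 10 reads, mCherry proximal and sfGFP distal, peptide attached via GGGS linker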
# assay-protocol: protein stability index of tFT-peptide fusion (C-terminal peptide) (PSI (0-1 scale)); higher = more stable (slower turnover)
# assay-setup: genetic background: wild type; temperature: 30 C
attribute-measured: protein stability index

# get_value(readout='protein stability index', item= KRREEKKRKRVE )
0.648

Request the reported protein stability index associated with SRPLQPLHQPKY
0.681

# protein stability index lookup, item WSGQWCRGRAGG
0.706

Recorded protein stability index for NVGACRVMKTVY , please?
0.688

What value of protein stability index has been reported for the following sequence? KIFRNKHENDLK
0.695

Dear colleague, I am looking for the recorded protein stability index of the following sequence: QLSRHCYQPSGG
0.671

What does the record list as protein stability index for FPFGICMISCDG ?
0.628

Recorded protein stability index of LRVVLVEWMCVV , please.
0.33

# get_value(readout='protein stability index', item= AGWKGGTSRGER )
0.662

Which protein stability index value belongs to NPGGRPKNTINP ?
0.649

Name the reported protein stability index value associated with the sequence PCLPLTPMWTLF
0.493

Please give the measured protein stability index for this sequence: RSDGRWYAGGLG
0.737

Entry LSCSLSWFFSSV has what protein stability index?
0.679

Which protein stability index reading was recorded for the sequence VFFFNALFCFFC ?
0.35

// lookup protein stability index for HKKRPKIRSNEY
0.622

So what's the measured protein stability index for this one? EKTNQPFHTLHA
0.673

Look up protein stability index for this sequence: RVSPWSDLSAFL
0.745

Return reported protein stability index; argument: RQVERRARRDRV
0.671

Quick one: protein stability index for PPPQHLPPPSLS ?
0.676

Any idea what its protein stability index is? The sequence is TSKYQENKQKKR
0.709

What value of protein stability index has been recorded for this entry: SRRENEVIGGAE
0.725

# query: protein stability index of entry SGVGPGNPPRPG
0.689

// query protein stability index value for entry GGHLTMMFGRLF
0.713

Which protein stability index value belongs to PGLLPTPSSPVP ?
0.821

Reported protein stability index for HSIPWTRTRPGC : what is it?
0.687

Item under review: HFCFKVFSVRAP . Reported protein stability index?
0.627

State the recorded protein stability index for this entry: PSVLPSSCTPSP
0.663

I'd like to know its protein stability index. The sequence in question is DFVSQFSFQFGC
0.713

Consider the sequence shown here: PPLRLSHFPRAD What is its recorded protein stability index?
0.659

Fill in the blank: the reported protein stability index of PVCDPCSKATLL is ____.
0.687

# protein stability index lookup, item GGEVFGGRCSAV
0.734

Given the entry VWGGGSWGGCGG , report its measured protein stability index.
0.744

Find the recorded protein stability index belonging to TRCKLALEKLVG and report it.
0.599

Requested field: protein stability index. Item: YIGSVCLCVSPV
0.6

Suppose we examine the sequence KNCYPTKKIAIK ; what protein stability index value has been reported?
0.638

Looking for the measured protein stability index of RLFRRSPTPALR , can you help?
0.8

# get_value(readout='protein stability index', item= NLRESRSLKGVI )
0.73

For the sequence HLVYRRGLEVTF , what protein stability index is on record?
0.615

# query: protein stability index of entry IGSEGGKNGRRK
0.616

Reported protein stability index for ERCQGGSGVLIR : what is it?
0.638

Tell me the measured protein stability index of AQTRSVGWEFGY , please.
0.685
